molecular target: T1, IsdB (iron-regulated surface determinant protein B), recombinant (Staphylococcus aureus, UniProt A6QG30 41-609); assay: ELISA on coated recombinant antigen, half-maximal binding
T1 construct: also called recombinant IsdB
T1 sequence (A6QG30 41-609 limits assumed): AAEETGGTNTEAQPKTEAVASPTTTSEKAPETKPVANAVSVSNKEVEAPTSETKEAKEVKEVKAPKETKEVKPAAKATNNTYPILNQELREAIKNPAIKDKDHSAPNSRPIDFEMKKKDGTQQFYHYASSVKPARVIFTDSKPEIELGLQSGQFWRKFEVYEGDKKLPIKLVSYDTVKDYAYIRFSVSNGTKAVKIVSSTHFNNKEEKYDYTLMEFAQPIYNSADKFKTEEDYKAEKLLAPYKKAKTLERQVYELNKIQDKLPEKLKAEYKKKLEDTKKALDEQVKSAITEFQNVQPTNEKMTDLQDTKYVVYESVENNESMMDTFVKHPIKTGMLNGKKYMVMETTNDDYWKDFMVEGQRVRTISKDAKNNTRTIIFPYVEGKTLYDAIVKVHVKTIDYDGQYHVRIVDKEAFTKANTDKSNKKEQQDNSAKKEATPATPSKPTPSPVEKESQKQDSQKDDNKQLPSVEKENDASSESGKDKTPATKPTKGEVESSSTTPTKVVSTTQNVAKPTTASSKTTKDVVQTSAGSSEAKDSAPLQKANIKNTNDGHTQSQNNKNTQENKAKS
Kindly supply the reported EC50 values for the records listed here.
The response must be a number in µg/mL with no trailing unit.

Asked: # return recorded EC50 for input STAU-402 (antibody, V domains shown) VH: QLQLQESGPGLVKPSETLSLTCTVSGGSISSSSYYWGWIRQPPGKGLEWIGSIYYSGSTYYNPSLKSRVTISVDTSKNQFSLKLSSVTAADTAVYYCARPNSSGWSYYFDYWGQGTLVTVSS VL: QSVLTQPPSVSGAPGQRVTISCTGTSSNIGADYDVHWYQQLPGTAPKLLIYGNINRPSGVPDRFSGSRSGTSASLAITGLQADDEADYYCQSYDSSLSGSVVFGGGTKLTVL
Given back: 3.4

Asked: # return recorded EC50 for input STAU-328 (antibody, V domains shown) VH: QVQLQQWGAGLLKPSETLSLTCAVYGGSFSGYYWSWIRQPPGKGLEWIGEINHSGSTNYNPSLKSRVTISVDTSKNQFSLKLSSVTAADTAVYYCARDVGDRYYFDYWGQGTLVTVSS VL: QSALTQPASVSGSPGQSITISCTGTSSDVGSYNLVSWYQQHPGKAPKLMIYEGSKRPSGVSNRFSGSKSGNTASLTISGLQAEDEADYYCCSYAGSSTFVVFGGGTKLTVL
Given back: 0.08

Asked: # return recorded EC50 for input STAU-229 (antibody, V domains shown) VH: EVQLVQSGAEVKKPGATMKISCKVSGYPFTDYYMHWVQQAPGKGLEWMGLIDPEDGETNYAEKFQGRVTITADTSTDTVYMELSSLRSEDTAVYFCAKPHCSSRTCQRVSGYYFGMDVWGQGTLVTVSS VL: QSALTQPPSASGSPGQSVTISCTGSSNDVGDYNFVSWYQQHPGKPPKLMIYEVTKRPSGVPDRFFGSKSGNTASLTVSGLQADDEADYYCSSYAGGNSVVFGGGTKLTVL
Given back: 0.01

Asked: # return recorded EC50 for input STAU-218 (antibody, V domains shown) VH: QVTLKESGPVVVKPTETLTLTCTVSDVSLRNVQMGVSWIRQPPGKALEWLAHIFSHDEKAYVTSLENRLTISRDTSNSQVVLTMTNMDPVDTGTYYCARIRSTSGEEEDPFAFWGQGTLVTVSS VL: DIQMTQSPSSLSASVGDRVTITCRASQSVTTWLAWYQQKPGKAPKLLIYSASSLESGVPSRFSGSGSGTDFTLTISNLQPDDFATYYCQQYRFYWTFGQGTKVESK
Given back: 4.1

Asked: # return recorded EC50 for input STAU-281 (antibody, V domains shown) VH: QVQLVQSGAEVKRPGSSVRVSCKDSGDSFRRYVINWVRQAPGQGLEWMGGIIPIFDKAKSVQKFQDRLTITADESTSTSYMELSSLTSEDTAVYYCARKEDGRRDDVFDIWGQGTLVTVSS VL: EIVMTQSPATLSVSLGERATLSCRASHSVGSSLAWYQQKPGLAPRLLIYGVSTRATGIPARFSGSGSATEFTLTISSLQSEDLAAYHCQQYDNWPFTFGQGTKLEIK
Given back: 0.002

Sourced from patent US20220080036A1
